# Study Target: α4β1 (Homo sapiens, UniProt P05556+P13612)
# Sequence (P13612 34-1032): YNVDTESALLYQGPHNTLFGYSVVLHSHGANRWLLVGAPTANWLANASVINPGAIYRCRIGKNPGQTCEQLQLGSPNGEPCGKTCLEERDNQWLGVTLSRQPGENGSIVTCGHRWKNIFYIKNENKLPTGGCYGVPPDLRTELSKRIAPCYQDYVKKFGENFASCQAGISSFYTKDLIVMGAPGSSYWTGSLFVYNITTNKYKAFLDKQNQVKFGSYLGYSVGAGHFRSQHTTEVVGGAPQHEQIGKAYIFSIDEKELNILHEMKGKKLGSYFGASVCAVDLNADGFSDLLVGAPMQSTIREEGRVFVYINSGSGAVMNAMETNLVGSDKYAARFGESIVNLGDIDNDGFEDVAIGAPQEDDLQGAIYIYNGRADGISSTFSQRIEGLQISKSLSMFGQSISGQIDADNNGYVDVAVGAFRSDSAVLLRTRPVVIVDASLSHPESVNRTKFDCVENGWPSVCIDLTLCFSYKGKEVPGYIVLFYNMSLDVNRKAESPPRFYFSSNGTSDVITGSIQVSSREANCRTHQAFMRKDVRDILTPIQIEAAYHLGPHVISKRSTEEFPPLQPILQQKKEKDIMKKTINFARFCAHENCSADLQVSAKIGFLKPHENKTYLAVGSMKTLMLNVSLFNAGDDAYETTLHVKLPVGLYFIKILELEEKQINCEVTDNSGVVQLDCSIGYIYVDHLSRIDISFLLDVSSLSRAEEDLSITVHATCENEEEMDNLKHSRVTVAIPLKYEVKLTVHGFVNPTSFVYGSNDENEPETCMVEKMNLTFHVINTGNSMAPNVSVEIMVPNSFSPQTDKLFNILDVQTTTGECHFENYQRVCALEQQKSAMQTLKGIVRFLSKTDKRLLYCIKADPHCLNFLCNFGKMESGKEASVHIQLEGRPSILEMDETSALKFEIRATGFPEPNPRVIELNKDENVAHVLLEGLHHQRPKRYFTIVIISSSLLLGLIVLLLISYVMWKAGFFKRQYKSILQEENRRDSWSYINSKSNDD
# Sequence (P05556 21-798): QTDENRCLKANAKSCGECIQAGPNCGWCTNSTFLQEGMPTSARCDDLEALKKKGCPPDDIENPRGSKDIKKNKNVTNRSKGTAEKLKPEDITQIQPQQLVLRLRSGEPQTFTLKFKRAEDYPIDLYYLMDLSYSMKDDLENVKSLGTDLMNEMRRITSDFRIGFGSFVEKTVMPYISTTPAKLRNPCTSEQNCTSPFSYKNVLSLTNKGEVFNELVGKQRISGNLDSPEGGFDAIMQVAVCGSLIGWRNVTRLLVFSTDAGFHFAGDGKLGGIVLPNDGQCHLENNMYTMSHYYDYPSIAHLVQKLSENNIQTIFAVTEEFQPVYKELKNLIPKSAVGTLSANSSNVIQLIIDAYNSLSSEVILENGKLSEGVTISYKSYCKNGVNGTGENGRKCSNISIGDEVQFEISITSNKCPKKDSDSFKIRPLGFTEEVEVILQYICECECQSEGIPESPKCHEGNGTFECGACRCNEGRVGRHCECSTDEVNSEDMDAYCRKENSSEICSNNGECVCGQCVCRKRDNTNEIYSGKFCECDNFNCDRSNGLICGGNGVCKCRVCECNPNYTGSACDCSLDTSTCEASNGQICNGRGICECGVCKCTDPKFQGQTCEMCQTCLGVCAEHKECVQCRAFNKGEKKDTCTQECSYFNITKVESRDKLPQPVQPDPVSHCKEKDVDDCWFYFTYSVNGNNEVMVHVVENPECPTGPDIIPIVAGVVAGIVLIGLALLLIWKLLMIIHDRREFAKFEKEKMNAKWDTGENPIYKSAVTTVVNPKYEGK
# Test Name: α4β1 integrin inhibition, IC50
# Assay type: binding
# Assay Conditions: read-out: α4β1 IC50
Observable: IC50

Form field: reported IC50 of Cc1cn(C)c(=O)c(NC(=O)NC(CC(=O)O)c2cccc(-c3cc(Cl)c(F)cc3F)c2)c1O (stereo not drawn) [1-503] < 200 nM

More entries:
Form field: reported IC50 of Cc1cn(C)c(=O)c(NC(=O)N[C@@H](CC(=O)O)c2cccc(-c3ccc(F)cc3F)c2)c1O [1-446] < 20 nM

Form field: reported IC50 of Cn1ccc(O)c(NC(=O)N[C@@H](CC(=O)O)c2ccc(F)c(-c3c(F)cccc3F)c2)c1=O [1-546] < 20 nM

Form field: reported IC50 of COc1ccc(-c2cccc([C@H](CC(=O)O)NC(=O)Nc3c(O)c(C)cn(C)c3=O)c2)cc1OC [1-469] < 20 nM

Form field: reported IC50 of Cc1cn(C)c(=O)c(NC(=O)N[C@@H](CC(=O)O)c2cccc(-c3cccc(F)c3F)c2)c1O [1-496] < 200 nM

Form field: reported IC50 of Cc1ccccc1-c1cc([C@H](CC(=O)O)NC(=O)Nc2c(O)ccn(C)c2=O)ccc1F [1-612] < 20 nM

---

# Study Target: α4β1 (Homo sapiens, UniProt P05556+P13612)
# Test Name: α4β1 integrin inhibition, IC50
# Type: binding
# Assay Conditions: read-out: α4β1 IC50
Measured IC50, listed per entry for reference.

As a guide, the following entries are already answered.
Form field: reported IC50 of Cc1cccc(C)c1-c1cc([C@H](CC(=O)O)NC(=O)Nc2c(O)cc(C)n(C)c2=O)ccc1F [1-578] < 20 nM

Form field: reported IC50 of CCn1cc(C)c(O)c(NC(=O)N[C@@H](CC(=O)O)c2cccc(-c3ccccc3C)c2)c1=O [1-443] < 200 nM

Form field: reported IC50 of COc1cccc(-c2cc([C@H](CC(=O)O)NC(=O)Nc3c(O)c(C)cn(C)c3=O)ccc2OC)c1 [1-527] < 20 nM

Form field: reported IC50 of Cn1ccc(O)c(NC(=O)N[C@@H](CC(=O)O)c2cccc(-c3ccc(Cl)s3)c2)c1=O [1-538] < 20 nM

Form field: reported IC50 of Cn1ccc(O)c(NC(=O)N[C@@H](CC(=O)O)c2ccc(-c3cccc(Cl)c3)s2)c1=O [1-619] < 200 nM

Now look at this one.
Form field: reported IC50 of O=C(O)C[C@H](NC(=O)Nc1c(O)cc2n(c1=O)CCC2)c1cccc(-c2ccc(F)cc2F)c1 [1-629] < 20 nM
